Measured selectivity ratio by item
# assay remarks: Selectivity index, ratio of CC50 for human WI38 cells to EC50 for BK polyomavirus ATCC VR837
# Type: toxicity, cell-based, WI-38
# protocol conditions: read-out: Selectivity Index
Respond with the number and no other words.

// worked examples, selectivity ratio included
compound	assay result
CCCCCCCCCCCCCCCCOCCCOP(=O)(O)CO[C@H](CO)Cn1cnc2c(N)ncnc21	58.5
Nc1nc(O)c2ncn(/C=C3/CC3CO)c2n1 (stereo not given) [SYNGUANOL]	1
Nc1nc(=O)c2ncn(COCCOP3(=O)OCc4ccccc4O3)c2[nH]1 (stereo not given)	1
Nc1ccn([C@@H]2CS[C@H](CO)O2)c(=O)n1 [LAMIVUDINE]	1
CCCCCCCCCCCCCCCCCCOCCOP(=O)(O)CO[C@H](CO)Cn1cnc2c(N)ncnc21	11.7
Nc1ncnc2c1ncn2CCOCP(=O)(O)O [ADEFOVIR]	1.3

Kindly note the recorded selectivity ratio for Nc1ncnc2c1ncn2/C=C1/CC1(CO)CO , which is 11.9

Kindly note the recorded selectivity ratio for CCCCCCCC/C=C\CCCCCCCCOC(=O)Nc1ncnc2c1ncn2CCOCP(=O)(O)O , which is 233

Kindly note the recorded selectivity ratio for CC(=O)OCC(CCn1cnc2cnc(N)nc21)COC(C)=O [FAMCICLOVIR] , which is 1

Kindly note the recorded selectivity ratio for Cc1cn([C@H]2C=C[C@@H](CO)O2)c(=O)[nH]c1=O [STAVUDINE] , which is 1
